# procedure.summary: Pharmacokinetics of CD101 after single 30 mg/kg SC (vs IV) dose in monkeys
# Assay type: in vivo
# measurement.setup: female, cynomolgus monkey, plasma; animal 9707, F; 30 mg/kg SC
Starred links: 1 amine or outer side, 2 acyl side, 3 side chain; linkers in the order of their positions; H or OH if unused. Positions of bridges follow the written chain, without caps; N, C: chain ends. Non-standard residues stand in square brackets, D forms with d. Residues, ends and D or L forms follow the SMILES beside them. *: point of attachment. Orn(4R-OH,5R-OCH2CH2NMe3+) = C[N+](C)(C)CCO[C@@H](N[*:3])[C@H](O)C[C@H](N[*:1])C(=O)[*:2]; pTerphenylCO(4''-OnC5H11) = CCCCCOc1ccc(-c2ccc(-c3ccc(C(=O)*)cc3)cc2)cc1; hTyr(3S-OH,4S-OH) = N[C@H](C(=O)O)[C@H](O)[C@@H](O)c1ccc(O)cc1; Pro(3S-OH,4S-Me) = C[C@H]1CN[C@H](C(=O)O)[C@H]1O; Hyp = O=C(O)[C@@H]1C[C@@H](O)CN1
measured.parameter: Cmax

Challenge: Using the record for CCCCCOc1ccc(-c2ccc(-c3ccc(C(=O)N[C@H]4C[C@@H](O)[C@@H](OCC[N+](C)(C)C)NC(=O)[C@@H]5[C@@H](O)[C@@H](C)CN5C(=O)[C@H]([C@@H](C)O)NC(=O)[C@H]([C@H](O)[C@@H](O)c5ccc(O)cc5)NC(=O)[C@@H]5C[C@@H](O)CN5C(=O)[C@H]([C@@H](C)O)NC4=O)cc3)cc2)cc1 [CD101] ({pTerphenylCO(4''-OnC5H11)}-[Orn(4R-OH,5R-OCH2CH2NMe3+)]T[Hyp][hTyr(3S-OH,4S-OH)]T[Pro(3S-OH,4S-Me)]; lactam 1-C) , state its measured Cmax.
Response given: 10900 ng/mL

###

# Test system: Candida auris strains
# procedure.summary: Candida auris antifungal susceptibility testing (CLSI M27-A3), 38 strains
# Format: cell-based
# measurement.setup: Candidozyma auris, 24 h, strain 35 VCPI 717/P/14; 24 h; read-out: MIC
Starred links: 1 amine or outer side, 2 acyl side, 3 side chain; linkers in the order of their positions; H or OH if unused. Positions of bridges follow the written chain, without caps; N, C: chain ends. Non-standard residues stand in square brackets, D forms with d. Residues, ends and D or L forms follow the SMILES beside them. *: point of attachment. Orn(4R-OH,5R-OCH2CH2NMe3+) = C[N+](C)(C)CCO[C@@H](N[*:3])[C@H](O)C[C@H](N[*:1])C(=O)[*:2]; hTyr(3S-OH,4S-OH,3'-OSO3H) = N[C@H](C(=O)O)[C@H](O)[C@@H](O)c1ccc(O)c(OS(=O)(=O)O)c1; pTerphenylCO(4''-OnC5H11) = CCCCCOc1ccc(-c2ccc(-c3ccc(C(=O)*)cc3)cc2)cc1; Orn(4R-OH,5R-OH) = O=C([C@H](C[C@@H](O)[C@@H](O)N[*:3])N[*:1])[*:2]; hTyr(3S-OH,4S-OH) = N[C@H](C(=O)O)[C@H](O)[C@@H](O)c1ccc(O)cc1; Pro(3S-OH,4S-Me) = C[C@H]1CN[C@H](C(=O)O)[C@H]1O; X1 = CCCCCOc1ccc(-c2cc(-c3ccc(C(=O)*)cc3)no2)cc1; Gln(3R-OH) = NC(=O)C[C@@H](O)[C@H](N)C(=O)O; Hyp = O=C(O)[C@@H]1C[C@@H](O)CN1
Exercise: for every item that follows, state its recorded MIC.
Answer format: numeric, µg/mL implied, no suffix.

Challenge: Check the records and state MIC for `CC[C@H](C)C[C@H](C)CCCCCCCCC(=O)N[C@H]1C[C@@H](O)[C@@H](NCCN)NC(=O)[C@@H]2[C@@H](O)CCN2C(=O)[C@H]([C@H](O)CCN)NC(=O)[C@H]([C@H](O)[C@@H](O)c2ccc(O)cc2)NC(=O)[C@@H]2C[C@@H](O)CN2C(=O)[C@H]([C@@H](C)O)NC1=O`
Response given: 0.5

Challenge: Look up and report measured MIC for this entry: `OC(Cn1cncn1)(Cn1cncn1)c1ccc(F)cc1F`
Response given: 4

Challenge: Name the recorded MIC of the compound listed here: CCCCCOc1ccc(-c2cc(-c3ccc(C(=O)N[C@H]4C[C@@H](O)[C@@H](O)NC(=O)[C@@H]5[C@@H](O)[C@@H](C)CN5C(=O)[C@H]([C@H](O)CC(N)=O)NC(=O)[C@H]([C@H](O)[C@@H](O)c5ccc(O)c(OS(=O)(=O)O)c5)NC(=O)[C@@H]5C[C@@H](O)CN5C(=O)[C@H]([C@@H](C)O)NC4=O)cc3)no2)cc1 [Micafungin, micafungin] (X1-[Orn(4R-OH,5R-OH)]T[Hyp][hTyr(3S-OH,4S-OH,3'-OSO3H)][Gln(3R-OH)][Pro(3S-OH,4S-Me)]; lactam 1-C)
Response given: 0.125

Challenge: Given CCCCCOc1ccc(-c2ccc(-c3ccc(C(=O)N[C@H]4C[C@@H](O)[C@@H](OCC[N+](C)(C)C)NC(=O)[C@@H]5[C@@H](O)[C@@H](C)CN5C(=O)[C@H]([C@@H](C)O)NC(=O)[C@H]([C@H](O)[C@@H](O)c5ccc(O)cc5)NC(=O)[C@@H]5C[C@@H](O)CN5C(=O)[C@H]([C@@H](C)O)NC4=O)cc3)cc2)cc1 [CD101] ({pTerphenylCO(4''-OnC5H11)}-[Orn(4R-OH,5R-OCH2CH2NMe3+)]T[Hyp][hTyr(3S-OH,4S-OH)]T[Pro(3S-OH,4S-Me)]; lactam 1-C) , respond with its MIC.
Response given: 0.25
